System: MelJuSo cells
ASSAY_INFO: Cell viability (CellTiter-Glo ATP content) in MelJuSo cells
Format: cell-based
PARTICULARS: Homo sapiens, MEL-JUSO, 72 hours treatment, cell survival by CellTiter-Glo, 2% fetal bovine serum
MEASURED_PARAMETER: IC50

Look up IC50 for this molecule: CCCCC1C(c2ccc(F)cc2)=NN(c2ccccc2)C1(C)C(=O)NCCCCCCO (stereo not shown) [Compound 34]
0.5 to 1 µM

So what does the record say about IC50 for CCCCC1C(c2ccc(Cl)cc2)=NN(c2ccccc2)C1(C)C(=O)NCCOC (stereo not shown) [Compound 58] ?
1 to 2 µM

Which IC50 reading was recorded for the molecule CCCCC1C(c2ccc(F)cc2)=NN(c2ccc(Cl)cc2F)C1(C)C(=O)NCCCC(C)(C)CO (stereo not shown) [Compound 23] ?
0.25 to 0.5 µM

Which measured IC50 value corresponds to CCCCC1C(c2ccc(F)cc2)=NN(c2ccccc2)C1(C)C(=O)NCc1ccc(CN2CCOCC2)cc1 (stereo not shown) [Compound 80] ?
> 2 µM

###

Test system: A549 cells
ASSAY_INFO: Cell viability (CellTiter-Glo ATP content) in A549 cells
Assay type: cell-based
PARTICULARS: Homo sapiens, A549, 72 h, 72 hours treatment, cell survival by CellTiter-Glo, 2% fetal bovine serum
MEASURED_PARAMETER: IC50

API: value(readout=IC50, system=A549 cells) for record CCCCC1C(c2ccc(F)cc2)=NN(c2ccccc2)C1(C)C(=O)NCc1ccc(N(C)C)cc1 (stereo not shown)
> 2 µM

Notebook: pull reported IC50 for A549 cells, entry CC(C)(CO)CCCNC(=O)C1(C)C(c2ccco2)C(c2ccc(F)cc2)=NN1c1ccc(F)cc1F (stereo not shown)
0.25 to 0.5 µM

What is its IC50 for A549 cells? Entry: CCCCC1C(c2ccc(F)cc2)=NN(c2cc(F)ccc2F)C1(C)C(=O)NCCCCC(C)(C)O (stereo not shown)
1 to 2 µM

Lab request: please report IC50 under test system A549 cells for CCCCC1C(c2ccc(Cl)cc2)=NN(c2ccccc2)C1(C)C(=O)NCCOC (stereo not shown)
> 2 µM

Query the reported IC50 for A549 cells; item: CN1CCOC(CNC(=O)C2(C)C(c3cccs3)C(c3ccc(F)cc3)=NN2c2ccc(F)cc2F)C1 (stereo not shown)
0.5 to 1 µM

Param readout= IC50; system= A549 cells; entry= CCCCC1C(c2ccc(F)cc2)=NN(c2ccc(F)cc2Cl)C1(C)C(=O)NCCCC(C)(C)CO (stereo not shown) ; returns value.
> 2 µM

Tell me reported IC50 for COC(=O)CNC(=O)C1(C)C(c2ccoc2)C(c2ccc(F)cc2F)=NN1c1ccc(F)cc1F (stereo not shown) , tested with A549 cells.
0.5 to 1 µM

// lookup IC50 | system=A549 cells | key= CCCCC1C(c2ccc(F)cc2)=NN(c2ccccc2)C1(C)C(=O)NCc1cccc(Cl)c1 (stereo not shown)
> 2 µM

Lab note: need IC50 for COC(=O)CNC(=O)C1(C)C(c2ccc(Cl)o2)C(c2ccc(F)cc2F)=NN1c1ccc(F)cc1F (stereo not shown) on A549 cells, anyone have it?
< 0.25 µM

A549 cells / IC50 / CCCCC1C(c2ccc(F)cc2F)=NN(c2ccccc2)C1(C)C(=O)NCCOC (stereo not shown) : value?
1 to 2 µM

Hello, I am looking for reported IC50 with A549 cells for CCCCC1C(c2ccc(F)cc2)=NN(c2ccc(F)cc2F)C1(C)C(=O)NCCCCC(C)(C)O (stereo not shown) . Could you help?
0.5 to 1 µM

What value of IC50 on A549 cells does CCCCC1C(c2ccc(F)cc2)=NN(c2ccccc2)C1(C)C(=O)NCCCN(C)C (stereo not shown) have?
> 2 µM

# value lookup — system A549 cells, readout IC50, item CCCCC1C(c2ccc(F)cc2)=NN(c2ccccc2)C1(C)C(=O)NCC1CCCCO1 (stereo not shown)
> 2 µM

Hi! What's the reported IC50 for CC(C)(CO)CCCNC(=O)C1(C)C(c2ccncc2)C(c2ccc(F)cc2)=NN1c1ccccc1 (stereo not shown) on A549 cells?
> 2 µM

Find IC50 (A549 cells) for the entry COCCNC(=O)C1(C)C(c2cccs2)C(c2ccc(F)cc2)=NN1c1ccc(F)cc1F (stereo not shown)
0.25 to 0.5 µM

Form field - read-out: IC50; system: A549 cells; submitted item: CCCCC1C(c2ccc(F)cc2)=NN(c2ccccc2)C1(C)C(=O)NCc1ccc(OC)cc1OC (stereo not shown)
> 2 µM
